Entries and their non-specific binding amount (RU)
biological target: T1, Lysozyme from chicken egg (Sigma, L3790) (chicken, UniProt P00698 19-147); assay: SPR, Biacore 8K, lysozyme immobilized on CM5, antibody at 1000 nM; buffer alone 16.9 RU
T1 construct: Non-target molecule, amine-coupled to a CM5 chip
T1 sequence (P00698 19-147 limits assumed): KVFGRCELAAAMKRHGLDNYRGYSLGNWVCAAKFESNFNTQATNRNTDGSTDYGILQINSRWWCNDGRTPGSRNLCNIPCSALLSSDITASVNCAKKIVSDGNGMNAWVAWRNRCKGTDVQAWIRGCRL
quantity_name: non-specific binding amount (RU)

INSERT INTO results (binder, observed_value) VALUES
  ('900728 (humanized anti-CD73 antigen-binding protein) (antibody, V domains shown) VH: QVQLVQSGAEVKKPGASVKVSCKASGYTFTSYWIHWVRQAPGQGLEWIGMIHPNSGSTYYNEKFQGRVTMTVDKSTSTAYMELSSLRSEDTAVYYCARYYGSDYEWYFDVWGQGTTVTVSS VL: DIQMTQSPSSLSASVGDRVTITCKASQNVRTAVVWYQQKPGKAPKALIYLASNRHTGVPDRFSGSGSGTDFTLTISSLQPEDFATYYCLQHWNYPYTFGQGTKLEIK', '20.2 RU'),
  ('900567 (human-mouse chimeric anti-CD73 antigen-binding protein expressed from 124A9 variable regions) (antibody, V domains shown) VH: QVQLQQPGAELVKPGASVKLSCKASGYTFTSYWIHWVKQRPGQGLDWIGMIHPNSGSTYYNEKFKSKATLTVDKSSSTAYMQLSSLTSEDSAVYYCARYYGSDYEWYFDVWGTGTTVTVSS VL: DIVMTQSQKFMSTSVGDRVSITCKASQNVRTAVVWYQQNPGQSPKALIYLASNRHTGVPDRFTGSGSGTDFTLTISNVHSEDLADYFCLQHWNYPYTFGGGTKLEIK', '15.8 RU');
